Tested on: endothelial cells (canine aorta)
procedure_details: Serum (1%)-induced endothelial cell proliferation, 3H-thymidine incorporation
Type: cell-based
condition_parameters: Canis lupus familiaris, Endothelial cell; serum induced; Table 2; read-out: ED50 FOR ENDOTHELIAL CELL (concentration at which proliferation is inhibited by 50%)
Entries and their IC50 values follow.
readout_type: IC50 (µM)

compound="CC1=C(/C=C/C#Cc2ccc(C(=O)O)cc2)C(C)(C)CCC1 [AGN 190121]" value_measured=23
compound="CC(C)(C)c1ccc(C#Cc2ccc(C(=O)O)cn2)cc1OC1CCCCO1 (centres unmarked) [AGN 192327]" value_measured=29
compound="C/C(=C\\c1ccc(C(=O)O)s1)c1cc2c(cc1C)C(C)(C)CCC2(C)C [AGN 191659]" value_measured=39
compound="CC1=C(/C=C/C(C)=C\\C=C\\C(C)=C\\C(=O)O)C(C)(C)CCC1 [AGN 192013, reference compound]" value_measured=2.25
compound="CC(C)(C)c1ccc(C#Cc2ccc(C(=O)O)cc2)cc1OC1CCCCO1 (centres unmarked) [AGN 192326]" value_measured=16.5

Every entry's value here was drawn from patent US5798372A.
